Recorded values, source PubChem BioAssay (NCI).

# Test system: EKVX NSCLC
# Method description: NCI tumour cell line growth inhibition, 48 h
Experimental readout: TGI

INSERT INTO measurements (compound, meas_value) VALUES
  ('COn1cc(C=O)c2ccccc21', '> 100 µM');

Prompt line: // map `NC1CCCC[C@H]1N.N[C@@H]1CCCC[C@@H]1N.O=C(P(=O)([O-])[O-])P(=O)([O-])[O-].[Pt+4].[Pt+4]` to recorded TGI (system: EKVX NSCLC)
Response line: > 100 µM

Prompt line: Can you handle O=C1C(Cl)C(c2ccccc2)N1n1cnc2ccccc2c1=O (stereo not given) next?
Response line: > 100 µM

Prompt line: Can you handle `COc1cc2cn3c4ccc(O)cc4[nH]c(=O)c3c2cc1OC` next?
Response line: 2 µM

###

Each entry below carries its reported TGI.
# System: A498 renal
# Method description: NCI tumour cell line growth inhibition, 48 h

// solved cases for TGI follow
INSERT INTO results (compound, tested_target, meas_value) VALUES
  ('CC(=O)OCC1OC(Nc2ncc(-c3ccc(C)cc3)s2)C(OC(C)=O)C(OC(C)=O)C1OC(C)=O (stereo unspecified)', 'A498 renal', '> 100 µM'),
  ('N#C/C(=C\c1ccc(O)c(O)c1)C(N)=O', 'A498 renal', '> 100 µM'),
  ('CCN(CC)CCn1nc(N)c2nc3cc(Cl)ccc3nc21', 'A498 renal', '> 100 µM');

Prompt line: Which TGI is listed for `COc1ccccc1/C=C/c1cnccn1` ?
Response line: > 10 µM

Prompt line: Can you handle CCC1OC2C(CC=C(C)C)=C3OC(C)(O)C(C)(CC)C(OC(=O)c4ccccc4)C3=C3OC(=O)C=C1C32 (stereo unspecified) next?
Response line: > 100 µM

Prompt line: Can you handle `COC(=O)c1ccc(/C=C2\N=C(C)OC2=O)cc1` next?
Response line: > 100 µM

###

Each entry below carries its reported TGI.
# Test system: OVCAR-8 ovarian
# Method description: NCI tumour cell line growth inhibition, 48 h

Prompt line: Which TGI is listed for `Nc1nc(Nc2ccccc2)c2ncn(Cc3cc4c(cc3Br)OCO4)c2n1` ?
Response line: 0.832 µM

###

# System: OVCAR-5 ovarian
# Method description: NCI tumour cell line growth inhibition, 48 h
Each entry below carries its reported TGI.

// solved cases for TGI follow
INSERT INTO results (compound, meas_value) VALUES
  ('N#Cc1sc2nc(/C=C3/C=CC=CC3=O)c(O)n2c1N', '> 100 µM'),
  ('COc1ccc(/C=c2/sc3n(c2=O)C(c2ccc(OC)c(OC)c2)C2=C(N=3)c3cc(F)ccc3OC2)cc1 (stereo not drawn)', '> 100 µM');

Prompt line: Which TGI is listed for O=C1c2cc3c(cc2CC12Cc1cc4c(cc1C2=O)CCC4)CCCC3 (stereo not drawn) ?
Response line: > 100 µM

###

# System: HOP-92 NSCLC
# Method description: NCI tumour cell line growth inhibition, 48 h
Experimental readout: TGI

// solved cases for TGI follow
INSERT INTO results (molecule, meas_value) VALUES
  ('O=C(O)Cc1c(O)ccc2ccccc12', '> 100 µM'),
  ('O=c1cc(-c2ccccc2)[nH]c2cc3c(cc12)OCO3', '> 56.5 µM'),
  ('N#CC1Nc2ccccc2[C@@H](O)C1O (stereo partly drawn)', '> 100 µM'),
  ('CC1=C(Br)C(Br)=C(C)S1=O', '> 100 µM'),
  ('O=C(O)c1c(-c2nccc3ccccc23)[nH]c(-c2ccccc2)c1S(=O)(=O)O', '> 100 µM');

Prompt line: // map `CCN1CCN(c2ccc(Nc3ccnc4ccc5nn(C)nc5c34)cc2)CC1` to recorded TGI (system: HOP-92 NSCLC)
Response line: 26.5 µM

Prompt line: Can you handle `O/N=C\c1c(O)ccc2ccccc12` next?
Response line: > 100 µM

Prompt line: Can you handle `CN(Nc1cc(=O)[nH]c(=O)[nH]1)c1ccccc1` next?
Response line: > 100 µM

Prompt line: Can you handle `C=CCN1C[C@H](C)N([C@H](c2ccc(C(=O)N(CC)CCO)cc2)c2cccc(OC)c2)C[C@H]1C` next?
Response line: > 100 µM

Prompt line: Can you handle O=C1c2cc3c(cc2CC12Cc1cc4c(cc1C2=O)CCC4)CCCC3 (stereo not drawn) next?
Response line: > 100 µM

Prompt line: Can you handle `CCCCCc1c(C)[nH]c(/C=C2\N=C(c3ccc[nH]3)C=C2CC)c1C` next?
Response line: 0.0426 µM

Prompt line: Can you handle CCOC(=O)CC1c2ccc(O)cc2OC(=O)C1c1ccc([N+](=O)[O-])cc1 (stereo not drawn) next?
Response line: 63.2 µM

Prompt line: Can you handle `Cc1sc2nc(NCCc3c[nH]c4ccc(Cl)cc34)[nH]c(=O)c2c1C` next?
Response line: 5.64 µM

Prompt line: Can you handle CCN1C(=O)N(CC)C2C1NC(=S)N2/N=C/C=C/c1cccs1 (stereo not drawn) next?
Response line: > 100 µM

Prompt line: Can you handle COC(=O)[C@@H](NC(=O)[C@@H](OC)[C@@H]1Cc2cc3cc(OC4CC(OC5CC(O)C(O)C(C)O5)C(O)C(C)O4)c(C)c(O)c3c(O)c2C(=O)[C@H]1OC1CC(OC2CC(OC3CC(C)(O)C(O)C(C)O3)C(O)C(C)O2)C(O)C(C)O1)C(C)C (stereo partly drawn) next?
Response line: 1.13 µM

Prompt line: Can you handle `COc1ccc(-c2cc(-c3cccn3C)c(C#N)c(N)n2)cc1OC` next?
Response line: > 100 µM

Prompt line: Can you handle `COc1ccc2c(c1)CC[C@@H]1[C@@H]2CC[C@]2(C)C(=O)/C(=C/c3ccc(OC)c(OC)c3)C[C@@H]12` next?
Response line: > 100 µM

Prompt line: Can you handle `O=C(C(=O)N1CCc2ccccc21)c1c[nH]c2ccccc12` next?
Response line: > 10 µM

Prompt line: Can you handle `O=C(CCCN1CC=C(n2c(=O)[nH]c3ccccc32)CC1)c1ccc(F)cc1` next?
Response line: > 100 µM

Prompt line: Can you handle `CN(C)c1ccc2nc3ccc(=O)cc-3sc2c1` next?
Response line: 29.5 µM

Prompt line: Can you handle O=C(O)c1cc(O)c2c(c1)C(C1c3cc(C(=O)O)cc(O)c3C(=O)c3c(OC4OC(CO)C(O)C(O)C4O)cccc31)c1cccc(OC3OC(CO)C(O)C(O)C3O)c1C2=O (stereo not drawn) next?
Response line: > 100 µM

###

# System: CCRF-CEM leukemia
# Method description: NCI tumour cell line growth inhibition, 48 h; in the data active = GI50 below about 0.43 µM; inactive = the rest
Your answer must be one of the following: active, inactive

These recorded examples may help you get a feel for the data.
INSERT INTO results (compound, category_label) VALUES
  ('Cc1cn2c(/C=C3/C(=O)Nc4ccccc43)c(-c3ccc(Cl)cc3)nc2s1', 'inactive'),
  ('C#C[C@]1(O)CC[C@H]2[C@@H]3CC=C4c5sc(Nc6ccccc6)nc5CC[C@]4(C)[C@H]3CC[C@@]21C', 'inactive'),
  ('Nc1nc(Br)nc2c1ncn2C1CC(O)C(CO)O1 (stereo not given)', 'active'),
  ('Cc1[nH][nH]c(=O)c1C=Nc1ccc(-c2nc3ccccc3[nH]2)cc1', 'active');

Prompt line: Short answer needed: outcome of this test for Cc1c(C2Nc3ccccc3C2C)[nH]c2ccccc12 (stereo not given) ?
Response line: inactive

Prompt line: Can you handle COC(=O)[C@@H](NC(=O)[C@@H](OC)[C@@H]1Cc2cc3cc(OC4CC(OC5CC(O)C(O)C(C)O5)C(O)C(C)O4)c(C)c(O)c3c(O)c2C(=O)[C@H]1OC1CC(OC2CC(OC3CC(C)(O)C(O)C(C)O3)C(O)C(C)O2)C(O)C(C)O1)C(C)C (stereo not given in full) next?
Response line: active

Prompt line: Can you handle `CC(=O)Oc1ccccc1C(=O)N=C1[Se]CCN1C(=O)c1ccccc1OC(C)=O` next?
Response line: inactive

Prompt line: Can you handle `CN(C)Cc1c[nH]c2c1C(=O)c1c(c(O)c3ccccc3c1O)C2=O` next?
Response line: inactive

Prompt line: Can you handle `COc1ccc(CNc2c3ccccc3nc3ccccc23)cc1OC` next?
Response line: inactive

Prompt line: Can you handle `CN(C)c1ccc2nc3ccc(=O)cc-3sc2c1` next?
Response line: inactive

###

# Test system: SNB-19 CNS
# Method description: NCI tumour cell line growth inhibition, 48 h
Each entry below carries its reported TGI.

// solved cases for TGI follow
INSERT INTO assay_data (compound, tested_target, experimental_readout, meas_value) VALUES
  ('CC(=O)OCC1OC(Nc2ncc(-c3ccc(C)cc3)s2)C(OC(C)=O)C(OC(C)=O)C1OC(C)=O (centres undefined)', 'SNB-19 CNS', 'TGI', '> 100 µM'),
  ('COC1=C(Br)[C@H](O)[C@@]2(C=C1Br)CC(C(=O)NCCCCCN=C(N)N)=NO2', 'SNB-19 CNS', 'TGI', '> 10 µM'),
  ('CCCCN1C=CN2c3nc4cc(C)c(C)cc4n3C(C(=O)OC)=C(C(=O)OC)C12 (centres undefined)', 'SNB-19 CNS', 'TGI', '> 100 µM');

Now for the compound whose TGI we want.
Prompt line: Which TGI is listed for `CCN1c2nc3ccccc3nc2N(CC)c2nc3ccccc3nc21` ?
Response line: > 100 µM
